Test system: DU-145
protocol_notes: Cytotoxicity against human DU145 cells after 48 hrs by SRB assay
Format: functional, cell-based
experimental_context: Homo sapiens, DU-145, 48 h; read-out: GI50
Grouping key: GI50. Bins: low-valued (below 900 nM), mid-valued (900 nM to below 2000 nM), high-valued (2000 nM or more)

{"chemical_structure": "C/C=C1\\NC(=O)[C@H](Cc2ccccc2)NC(=O)[C@@H](C(C)C)NC(=O)[C@@H]([C@H](C)CC)NC(=O)[C@H](NC(=O)[C@H](NC(=O)[C@H](CCCN)NC(=O)[C@H]2CCCN2C(=O)[C@H](NC(=O)[C@@H](NC(=O)[C@@H](NC(=O)[C@H](NC(=O)CCCCCCCCCCCCCCC)C(C)C)[C@@H](C)O)C(C)C)C(C)C)[C@H](C)CC)[C@H](C)OC(=O)[C@H](C(C)C)NC1=O", "assayed_target": "DU-145", "answer_label": "low-valued"}
{"chemical_structure": "CC[C@@H](C)[C@@H](NC(=O)[C@H](CCCN)NC(=O)[C@H]1CCCN1C(=O)[C@H](NC(=O)[C@@H](NC(=O)[C@@H](NC(=O)[C@H](NC(=O)CCCC(C)C)C(C)C)[C@@H](C)O)C(C)C)C(C)C)C(=O)N[C@H]1C(=O)N[C@H]([C@H](C)CC)C(=O)N[C@H](C(C)C)C(=O)N[C@@H](Cc2ccccc2)C(=O)NC(C)(C)C(=O)N[C@@H](C(C)C)C(=O)O[C@H]1C", "assayed_target": "DU-145", "answer_label": "mid-valued"}
{"chemical_structure": "C/C=C1\\NC(=O)[C@H](Cc2ccccc2)NC(=O)[C@@H](C(C)C)NC(=O)[C@@H]([C@H](C)CC)NC(=O)[C@H](NC(=O)[C@H](NC(=O)[C@H](CCCNC(=O)CCCC[C@@H]2SC[C@@H]3NC(=O)N[C@@H]32)NC(=O)[C@H]2CCCN2C(=O)[C@H](NC(=O)[C@@H](NC(=O)[C@@H](NC(=O)[C@H](NC(=O)CCCC(C)C)C(C)C)[C@@H](C)O)C(C)C)C(C)C)[C@H](C)CC)[C@H](C)OC(=O)[C@H](C(C)C)NC1=O", "assayed_target": "DU-145", "answer_label": "low-valued"}
{"chemical_structure": "C/C=C1\\NC(=O)[C@H](Cc2ccccc2)NC(=O)[C@@H](C(C)C)NC(=O)[C@@H]([C@H](C)CC)NC(=O)[C@H](NC(=O)[C@H](NC(=O)[C@H](CCCN)NC(=O)[C@H]2CCCN2C(=O)[C@H](NC(=O)[C@@H](NC(=O)[C@@H](NC(=O)[C@H](NC(=O)Cc2ccc(C(F)(F)F)cc2)C(C)C)[C@@H](C)O)C(C)C)C(C)C)[C@H](C)CC)[C@H](C)OC(=O)[C@H](C(C)C)NC1=O", "assayed_target": "DU-145", "answer_label": "high-valued"}
{"chemical_structure": "C/C=C1\\NC(=O)[C@H](Cc2ccccc2)NC(=O)[C@@H](C(C)C)NC(=O)[C@@H]([C@H](C)CC)NC(=O)[C@H](NC(=O)[C@H](NC(=O)[C@H](CCCN)NC(=O)[C@H]2Cc3ccccc3CN2C(=O)[C@H](NC(=O)[C@@H](NC(=O)[C@@H](NC(=O)[C@H](NC(=O)CC[C@@H](C)CC)C(C)C)[C@@H](C)O)C(C)C)C(C)C)[C@H](C)CC)[C@H](C)OC(=O)[C@H](C(C)C)NC1=O", "assayed_target": "DU-145", "answer_label": "high-valued"}
{"chemical_structure": "C/C=C1\\NC(=O)[C@H](Cc2ccccc2)NC(=O)[C@@H](C(C)C)NC(=O)[C@@H]([C@H](C)CC)NC(=O)[C@H](NC(=O)[C@H](NC(=O)[C@H](CCCN)NC(=O)[C@H]2CCCN2C(=O)[C@H](NC(=O)[C@@H](NC(=O)[C@@H](NC(=O)[C@@H](CC2CCCCC2)NC(=O)CCCC(C)C)[C@@H](C)O)C(C)C)C(C)C)[C@H](C)CC)[C@H](C)OC(=O)[C@H](C(C)C)NC1=O", "assayed_target": "DU-145", "answer_label": "mid-valued"}
{"chemical_structure": "CC[C@@H](C)[C@@H](NC(=O)[C@H](CCCN)NC(=O)[C@H]1CCCN1C(=O)[C@H](NC(=O)[C@@H](NC(=O)[C@@H](NC(=O)[C@H](NC(=O)CCCC(C)C)C(C)C)[C@@H](C)O)C(C)C)C(C)C)C(=O)N[C@H]1C(=O)N[C@H]([C@H](C)CC)C(=O)N[C@H](C(C)C)C(=O)N[C@@H](Cc2ccccc2)C(=O)N/C(=C\\c2ccccc2)C(=O)N[C@@H](C(C)C)C(=O)O[C@H]1C", "assayed_target": "DU-145", "answer_label": "mid-valued"}
{"chemical_structure": "C/C=C1\\NC(=O)[C@H](Cc2ccccc2)NC(=O)[C@@H](C(C)C)NC(=O)[C@@H]([C@H](C)CC)NC(=O)[C@H](NC(=O)[C@H](NC(=O)[C@H](CCCN)NC(=O)[C@H]2CCCN2C(=O)[C@H](NC(=O)[C@@H](NC(=O)[C@@H](NC(=O)[C@@H](Cc2ccccc2)NC(=O)CCCC(C)C)[C@@H](C)O)C(C)C)C(C)C)[C@H](C)CC)[C@H](C)OC(=O)[C@H](C(C)C)NC1=O", "assayed_target": "DU-145", "answer_label": "high-valued"}
{"chemical_structure": "C/C=C1\\NC(=O)[C@H](Cc2ccccc2)NC(=O)[C@@H](CCC2CCCCC2)NC(=O)[C@@H](CCC2CCCCC2)NC(=O)[C@H](NC(=O)[C@@H](CCC2CCCCC2)NC(=O)[C@H](CCCN)NC(=O)[C@H]2CCCN2C(=O)[C@H](NC(=O)[C@@H](NC(=O)[C@@H](NC(=O)[C@H](NC(=O)CCCC(C)C)C(C)C)[C@@H](C)O)C(C)C)C(C)C)[C@H](C)OC(=O)[C@H](C(C)C)NC1=O", "assayed_target": "DU-145", "answer_label": "low-valued"}
{"chemical_structure": "C/C=C1\\NC(=O)[C@H](Cc2ccc(I)cc2)NC(=O)[C@@H](C(C)C)NC(=O)[C@@H]([C@H](C)CC)NC(=O)[C@H](NC(=O)[C@H](NC(=O)[C@H](CCCN)NC(=O)[C@H]2CCCN2C(=O)[C@H](NC(=O)[C@@H](NC(=O)[C@@H](NC(=O)[C@H](NC(=O)CC[C@@H](C)CC)C(C)C)[C@@H](C)O)C(C)C)C(C)C)[C@H](C)CC)[C@H](C)OC(=O)[C@H](C(C)C)NC1=O", "assayed_target": "DU-145", "answer_label": "low-valued"}
